target: Retinol-binding protein 4 (Homo sapiens, UniProt P02753)
pIC50: −log10 of the molar value.
OUTCOME_MEASURE: pIC50

>>> result_value("O=C(c1c[nH]c2ccncc12)N1C[C@H]2C[C@@H](c3ccccc3C(F)(F)F)C[C@H]2C1")
"< 5.52"

[Q] Return pIC50 measured with Retinol-binding protein 4 (Homo sapiens, UniProt P02753) given this compound: O=C(c1c[nH]c2cnccc12)N1C[C@H]2C[C@@H](c3ccccc3C(F)(F)F)C[C@H]2C1
[A] < 5.52
